Consider the following compounds; for each one, report its HC50 at 1 h.
ASSAY_REMARKS: Hemolytic activity in human RBC assessed as hemolysis incubated for 1 hr by CO-ADD method
Type: ADME, cell-based, Erythrocyte
RUN_CONDITIONS: red blood cells (erythrocytes)

stdin: For the compound CC(C)CCOc1cccc(-c2cccc(OCc3cn(C[C@@H](CCCCN)NC(=O)[C@@H](CCCNC(=N)N)n4cc(CC5CCCCC5)nn4)nn3)c2)c1.Cl.Cl , what HC50 at 1 h is on record?
stdout: > 32 µg/mL

stdin: Sample CC(C)(C)c1ccc(CC(N)C(=O)NC(CCCNC(=N)N)C(=O)Nc2cc(NC(=O)C(CCCNC(=N)N)NC(=O)C(N)Cc3ccc(C(C)(C)C)cc3)cc(C(N)=O)c2)cc1 (stereo unspecified) — what was its HC50 at 1 h?
stdout: > 100 µg/mL

stdin: Using the record for CC(C)CCOc1cccc(-c2ccc(OCc3cn(C[C@@H](CCCCN)NC(=O)[C@@H](CCCNC(=N)N)n4cc(CC5CCCCC5)nn4)nn3)cc2)c1.Cl.Cl , report its HC50 at 1 h.
stdout: > 32 µg/mL

stdin: Which HC50 at 1 h is listed for CC(C)CCOc1ccccc1-c1ccc(OCc2cn(C[C@@H](CCCCN)NC(=O)[C@@H](CCCNC(=N)N)n3cc(CC4CCCCC4)nn3)nn2)cc1.Cl.Cl ?
stdout: > 32 µg/mL

stdin: Look up HC50 at 1 h: CC(C)CCOc1ccccc1-c1ccccc1OCc1cn(C[C@@H](CCCCN)NC(=O)[C@@H](CCCNC(=N)N)n2cc(CC3CCCCC3)nn2)nn1.Cl.Cl
stdout: > 32 µg/mL

stdin: For the compound CCCCCCCCCCCC(=O)N(CCCCCCNC(=O)[C@@H](N)CCCCN)CCCCCCNC(=O)[C@@H](N)CCCCN , what HC50 at 1 h is on record?
stdout: 860 µg/mL

stdin: For the compound CC(C)CCOc1ccccc1-c1cccc(OCc2cn(C[C@@H](CCCCN)NC(=O)[C@@H](CCCNC(=N)N)n3cc(CC4CCCCC4)nn3)nn2)c1.Cl.Cl , what HC50 at 1 h is on record?
stdout: > 32 µg/mL

stdin: Data request, read-out HC50 at 1 h, for CC(C)CCOc1ccc(-c2ccccc2OCc2cn(C[C@@H](CCCCN)NC(=O)[C@@H](CCCNC(=N)N)n3cc(CC4CCCCC4)nn3)nn2)cc1.Cl.Cl
stdout: > 32 µg/mL

stdin: So what does the record say about HC50 at 1 h for CC(C)CCOc1ccc(-c2cccc(OCc3cn(C[C@@H](CCCCN)NC(=O)[C@@H](CCCNC(=N)N)n4cc(CC5CCCCC5)nn4)nn3)c2)cc1.Cl.Cl ?
stdout: > 32 µg/mL

stdin: May I ask what HC50 at 1 h has been recorded for CC(C)CCOc1cccc(-c2ccccc2OCc2cn(C[C@@H](CCCCN)NC(=O)[C@@H](CCCNC(=N)N)n3cc(CC4CCCCC4)nn3)nn2)c1.Cl.Cl ?
stdout: > 32 µg/mL

stdin: Requested field: HC50 at 1 h. Item: CC(C)CCOc1ccc(-c2ccc(OCc3cn(C[C@@H](CCCCN)NC(=O)[C@@H](CCCNC(=N)N)n4cc(CC5CCCCC5)nn4)nn3)cc2)cc1.Cl.Cl
stdout: 9.8 µg/mL
